Hi there, I'd appreciate the recorded Solubility (Clear and colourless solution 1 mg/ml) for every entry that follows.
- test: Physico-chemical characteristics: solubility
- condition.info: solvent giving clear and colourless solution at 1 mg/ml
Ends that are not written are not given here.
Only the number, expressed in % acetic acid, is required.

Requested read-out: Solubility (Clear and colourless solution 1 mg/ml). Entry: SVFAGVVGV-OH [IMA-GUC-001] 90

And for LLGATCMFV-OH [IMA-CCN-001] ? 50

And for SVASTITGV-OH [IMA-ADF-001] ? 10

And for VMAGDIYSV-OH [IMA-ADF-002] ? 10

And for ALFDGDPHL-OH [IMA-K67-001] ? 20

And for STAPPVHNV-OH [IMA-MUC-001] ? 10
